Biological target: Interstitial collagenase (Homo sapiens)
Sequence (P03956 whole entry): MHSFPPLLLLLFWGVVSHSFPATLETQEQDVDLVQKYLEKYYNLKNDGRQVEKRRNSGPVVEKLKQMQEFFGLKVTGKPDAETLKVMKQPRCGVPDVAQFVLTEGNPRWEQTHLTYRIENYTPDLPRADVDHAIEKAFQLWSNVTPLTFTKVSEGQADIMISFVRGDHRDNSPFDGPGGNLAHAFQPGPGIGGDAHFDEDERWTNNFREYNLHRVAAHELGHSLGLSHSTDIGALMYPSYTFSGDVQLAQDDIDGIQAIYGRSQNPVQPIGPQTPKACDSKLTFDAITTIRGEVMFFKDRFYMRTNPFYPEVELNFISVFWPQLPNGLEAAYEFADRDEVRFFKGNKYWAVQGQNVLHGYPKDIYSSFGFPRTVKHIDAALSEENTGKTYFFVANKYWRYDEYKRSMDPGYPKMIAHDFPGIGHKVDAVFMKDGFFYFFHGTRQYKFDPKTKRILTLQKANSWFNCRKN
Assay: Inhibition of para-aminophenylmercuric acetate-activated human pro-MMP1 after 4 hrs by fluorimetry
We label by threshold. Values of IC50 strictly beneath 10 µM are Met. Values of 10 µM and up are Not met.

molecule=O=C(NO)c1ccccc1S(=O)(=O)c1ccc(-c2ccccc2)cc1 label="Not met"
molecule="CC(C(=O)O)c1ccccc1S(=O)(=O)c1ccc(-c2ccccc2)cc1 (racemic)" label="Not met"

Quick check: IC50 of O=C(Cc1ccccc1S(=O)(=O)c1ccc(-c2ccccc2)cc1)NO under 10 µM? Not met

====

Please go through the items and note down their pIC50.
Target: Matrix metalloproteinase-9 (Homo sapiens)
Sequence (P14780 whole entry, the tested form may be a part): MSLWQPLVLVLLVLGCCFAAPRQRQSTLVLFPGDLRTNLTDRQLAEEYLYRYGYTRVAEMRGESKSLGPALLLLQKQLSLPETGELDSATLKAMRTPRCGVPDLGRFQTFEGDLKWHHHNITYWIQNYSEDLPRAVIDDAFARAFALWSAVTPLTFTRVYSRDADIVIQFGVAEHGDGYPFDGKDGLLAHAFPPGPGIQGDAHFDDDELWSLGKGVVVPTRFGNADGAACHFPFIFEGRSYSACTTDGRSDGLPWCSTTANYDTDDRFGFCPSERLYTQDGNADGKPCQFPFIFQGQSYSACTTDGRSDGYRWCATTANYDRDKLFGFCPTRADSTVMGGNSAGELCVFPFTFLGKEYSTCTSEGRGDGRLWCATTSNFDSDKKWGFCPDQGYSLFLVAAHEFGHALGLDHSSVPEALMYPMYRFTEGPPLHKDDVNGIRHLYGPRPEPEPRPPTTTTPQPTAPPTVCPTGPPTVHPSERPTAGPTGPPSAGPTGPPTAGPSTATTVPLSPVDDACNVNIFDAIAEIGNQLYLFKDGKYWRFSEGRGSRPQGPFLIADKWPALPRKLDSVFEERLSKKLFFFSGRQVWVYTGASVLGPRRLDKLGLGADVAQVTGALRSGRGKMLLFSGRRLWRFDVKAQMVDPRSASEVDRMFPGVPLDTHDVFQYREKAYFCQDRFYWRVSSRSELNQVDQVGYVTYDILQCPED
Assay: Inhibition of para-aminophenylmercuric acetate-activated human recombinant pro-MMP9 catalytic domain after 4 hrs by fluorimetry
Answers are plain numbers, as −log10 of the molar value.

// below: answered compounds
compound="COc1ccc(-c2ccc(S(=O)(=O)c3ccccc3C(C)C(=O)O)cc2)cc1 (racemic)" tested_system="Matrix metalloproteinase-9 (Homo sapiens)" val=5.52
compound=O=C(O)Cc1ccccc1S(=O)(=O)c1ccc(-c2ccccc2)cc1 tested_system="Matrix metalloproteinase-9 (Homo sapiens)" val=5.14
compound="C[S+]([O-])c1ccc(Oc2ccc(S(=O)(=O)c3ccccc3C(=O)NO)cc2)cc1 (centres undefined)" tested_system="Matrix metalloproteinase-9 (Homo sapiens)" val=4.29
compound=COc1ccc(Oc2ccc(S(=O)(=O)c3ccccc3CC(=O)O)cc2)cc1 tested_system="Matrix metalloproteinase-9 (Homo sapiens)" val=6.38

Items follow; give pIC50 for each.
1. COc1ccc(-c2ccc(S(=O)(=O)c3ccccc3C(=O)NO)cc2)cc1
2. CC(C(=O)O)c1ccccc1S(=O)(=O)c1ccc(-c2ccccc2)cc1 (racemic)
3. COc1ccc(-c2ccc(S(=O)(=O)c3ccccc3CC(=O)O)cc2)cc1
4. COc1ccc(-c2ccc(S(=O)(=O)c3ccccc3C(C)C(=O)NO)cc2)cc1 (racemic)
5. CC(C(=O)NO)c1ccccc1S(=O)(=O)c1ccc(-c2ccccc2)cc1 (racemic)
6. COc1ccc(S(=O)(=O)c2ccccc2C(=O)NO)cc1

1: 6.03; 2: 4.70; 3: 6.14; 4: 7.16; 5: 6.47; 6: 4.62

Items follow; give pIC50 for each.
1. CC(C)ON([C@@H](C(=O)O)C(C)C)S(=O)(=O)c1ccc(-c2ccccc2)cc1
2. O=C(NO)c1ccccc1S(=O)(=O)c1ccc(Oc2ccccc2)cc1
3. COc1ccc(Oc2ccc(S(=O)(=O)c3ccccc3C(=O)NO)cc2)cc1
4. COc1ccc(Oc2ccc(S(=O)(=O)c3ccccc3CC(=O)NO)cc2)cc1

4.62
6.16
6.39
9.10

Items follow; give pIC50 for each.
1. COc1ccc(-c2ccc(S(=O)(=O)c3ccccc3CC(=O)NO)cc2)cc1
2. O=C(NO)c1ccccc1S(=O)(=O)c1ccc(-c2ccccc2)cc1
3. COc1ccc(S(=O)(=O)c2ccccc2CC(=O)NO)cc1

7.03
5.11
7.01

Memo: O=C(Cc1ccccc1S(=O)(=O)c1ccc(-c2ccccc2)cc1)NO , reported pIC50: 6.51

====

Molecular target: Matrix metalloproteinase-16 (Homo sapiens, UniProt P51512)
Test: Inhibition of human recombinant pro-MMP16 catalytic domain after 4 hrs by fluorimetry
measure: pIC50
Numbers only, as −log10 of the molar value.

Items follow; give pIC50 for each.
1. O=C(NO)c1ccccc1S(=O)(=O)c1ccc(-c2ccccc2)cc1
2. CC(C)ON([C@@H](C(=O)O)C(C)C)S(=O)(=O)c1ccc(-c2ccccc2)cc1
3. COc1ccc(-c2ccc(S(=O)(=O)c3ccccc3C(=O)NO)cc2)cc1
4. COc1ccc(-c2ccc(S(=O)(=O)c3ccccc3C(C)C(=O)NO)cc2)cc1 (racemic)

1. 5.29
2. 4.74
3. 5.92
4. 6.82

Items follow; give pIC50 for each.
1. CC(C(=O)O)c1ccccc1S(=O)(=O)c1ccc(-c2ccccc2)cc1 (racemic)
2. CC(C)ON([C@@H](C(=O)NO)C(C)C)S(=O)(=O)c1ccc(-c2ccccc2)cc1
3. COc1ccc(-c2ccc(S(=O)(=O)c3ccccc3CC(=O)NO)cc2)cc1
4. CC(C(=O)NO)c1ccccc1S(=O)(=O)c1ccc(-c2ccccc2)cc1 (racemic)

1. 5.20
2. 7.29
3. 6.89
4. 6.33

Items follow; give pIC50 for each.
1. COc1ccc(Oc2ccc(S(=O)(=O)c3ccccc3CC(=O)NO)cc2)cc1
2. COc1ccc(S(=O)(=O)c2ccccc2CC(=O)NO)cc1

[7.49, 6.89]

====

Please go through the items and note down their IC50.
Target: UniProt P39900
Experiment: Inhibition of autoactivated human pro-MMP12 after 4 hrs by fluorimetry
Give bare numbers, in nM.

// below: answered compounds
compound=COc1ccc(S(=O)(=O)c2ccccc2C(=O)NO)cc1 measure=IC50 val=14000
compound=O=C(NO)c1ccccc1S(=O)(=O)c1ccc(-c2ccccc2)cc1 measure=IC50 val=590
compound=O=C(NO)c1ccccc1S(=O)(=O)c1ccc(Oc2ccccc2)cc1 measure=IC50 val=1200
compound=COc1ccc(S(=O)(=O)c2ccccc2CC(=O)NO)cc1 measure=IC50 val=32
compound=COc1ccc(-c2ccc(S(=O)(=O)c3ccccc3CC(=O)NO)cc2)cc1 measure=IC50 val=4.8
compound=COc1ccc(Oc2ccc(S(=O)(=O)c3ccccc3CC(=O)O)cc2)cc1 measure=IC50 val=380

Items follow; give IC50 for each.
1. CC(C(=O)NO)c1ccccc1S(=O)(=O)c1ccc(-c2ccccc2)cc1 (racemic)
2. CC(C)ON([C@@H](C(=O)NO)C(C)C)S(=O)(=O)c1ccc(-c2ccccc2)cc1
3. COc1ccc(-c2ccc(S(=O)(=O)c3ccccc3C(C)C(=O)NO)cc2)cc1 (racemic)
4. C[S+]([O-])c1ccc(Oc2ccc(S(=O)(=O)c3ccccc3C(=O)NO)cc2)cc1 (stereo not given)
5. COc1ccc(-c2ccc(S(=O)(=O)c3ccccc3CC(=O)O)cc2)cc1
6. CC(C)ON([C@@H](C(=O)O)C(C)C)S(=O)(=O)c1ccc(-c2ccccc2)cc1
7. O=C(O)Cc1ccccc1S(=O)(=O)c1ccc(-c2ccccc2)cc1

[6, 0.2, 2.7, 5800, 140, 410, 1500]

====

Please go through the items and note down their pIC50.
Target: Stromelysin-1 (Homo sapiens)
Sequence (P08254 whole entry): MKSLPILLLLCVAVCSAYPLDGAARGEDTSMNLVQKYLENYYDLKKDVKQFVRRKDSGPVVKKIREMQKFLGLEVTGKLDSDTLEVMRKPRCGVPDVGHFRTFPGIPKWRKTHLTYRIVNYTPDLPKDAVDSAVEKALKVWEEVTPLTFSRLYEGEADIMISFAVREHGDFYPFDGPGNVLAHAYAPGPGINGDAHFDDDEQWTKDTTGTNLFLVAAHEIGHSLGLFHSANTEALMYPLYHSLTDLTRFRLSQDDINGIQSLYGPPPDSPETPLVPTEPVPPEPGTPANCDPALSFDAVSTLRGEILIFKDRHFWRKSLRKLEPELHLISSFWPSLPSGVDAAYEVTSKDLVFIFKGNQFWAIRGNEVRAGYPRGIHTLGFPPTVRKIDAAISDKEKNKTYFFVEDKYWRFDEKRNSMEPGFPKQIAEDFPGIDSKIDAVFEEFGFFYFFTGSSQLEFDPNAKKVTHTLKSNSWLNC
Experiment: Inhibition of trypsin activated human pro-MMP3 after 4 hrs by fluorimetry
Numbers only, as −log10 of the molar value.

molecule=O=C(NO)c1ccccc1S(=O)(=O)c1ccc(-c2ccccc2)cc1 val=4.35
molecule="COc1ccc(-c2ccc(S(=O)(=O)c3ccccc3C(C)C(=O)O)cc2)cc1 (racemic)" val=5.10
molecule="C[S+]([O-])c1ccc(Oc2ccc(S(=O)(=O)c3ccccc3C(=O)NO)cc2)cc1 (centres undefined)" val=4.22
molecule=CC(C)ON([C@@H](C(=O)O)C(C)C)S(=O)(=O)c1ccc(-c2ccccc2)cc1 val=4.27
molecule="COc1ccc(-c2ccc(S(=O)(=O)c3ccccc3C(C)C(=O)NO)cc2)cc1 (racemic)" val=5.85
molecule=O=C(NO)c1ccccc1S(=O)(=O)c1ccc(Oc2ccccc2)cc1 val=4.57
molecule=O=C(Cc1ccccc1S(=O)(=O)c1ccc(-c2ccccc2)cc1)NO val=4.64
molecule=COc1ccc(Oc2ccc(S(=O)(=O)c3ccccc3C(=O)NO)cc2)cc1 val=4.66
molecule=COc1ccc(-c2ccc(S(=O)(=O)c3ccccc3C(=O)NO)cc2)cc1 val=5.40
molecule=COc1ccc(Oc2ccc(S(=O)(=O)c3ccccc3CC(=O)NO)cc2)cc1 val=7.68

Items follow; give pIC50 for each.
1. COc1ccc(S(=O)(=O)c2ccccc2CC(=O)NO)cc1
2. COc1ccc(-c2ccc(S(=O)(=O)c3ccccc3CC(=O)O)cc2)cc1
3. COc1ccc(-c2ccc(S(=O)(=O)c3ccccc3CC(=O)NO)cc2)cc1
4. CC(C(=O)NO)c1ccccc1S(=O)(=O)c1ccc(-c2ccccc2)cc1 (racemic)
5. O=C(O)Cc1ccccc1S(=O)(=O)c1ccc(-c2ccccc2)cc1

1. 6.14
2. 5.12
3. 5.80
4. 5.25
5. 4.13

====

Please go through the items and note down their IC50.
Molecular target: Macrophage metalloelastase (Homo sapiens, UniProt P39900)
Sequence (P39900 whole entry): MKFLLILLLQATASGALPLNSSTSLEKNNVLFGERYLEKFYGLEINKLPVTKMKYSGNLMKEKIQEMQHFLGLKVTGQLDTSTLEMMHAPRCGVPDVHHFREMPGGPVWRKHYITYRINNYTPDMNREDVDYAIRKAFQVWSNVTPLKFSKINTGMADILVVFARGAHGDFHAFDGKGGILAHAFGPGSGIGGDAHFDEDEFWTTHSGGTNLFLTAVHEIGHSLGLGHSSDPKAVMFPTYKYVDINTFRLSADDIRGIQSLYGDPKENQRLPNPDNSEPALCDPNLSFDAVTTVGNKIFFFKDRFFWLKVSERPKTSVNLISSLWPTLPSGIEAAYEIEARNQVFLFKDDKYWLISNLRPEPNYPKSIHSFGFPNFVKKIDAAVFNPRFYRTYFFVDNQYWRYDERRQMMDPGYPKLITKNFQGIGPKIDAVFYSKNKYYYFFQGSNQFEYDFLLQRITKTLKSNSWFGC
Assay: Inhibition of autoactivated human pro-MMP12 after 30 mins preincubation by fluorimetry
Could you write the number and then its unit?

smiles_record=COc1ccc(Oc2ccc(S(=O)(=O)c3ccccc3CC(=O)NO)cc2)cc1 tested_system="Macrophage metalloelastase (Homo sapiens, UniProt P39900)" measure=IC50 val="0.89 nM"

Memo: COc1ccc(-c2ccc(S(=O)(=O)c3ccccc3CC(=O)O)cc2)cc1 , reported IC50: 170 nM

====

Target: Collagenase 3 (Homo sapiens, UniProt P45452)
Assay: Inhibition of para-aminophenylmercuric acetate-activated human pro-MMP13 after 4 hrs by fluorimetry
measure: pIC50
One number for each entry, as −log10 of the molar value.

compound=COc1ccc(-c2ccc(S(=O)(=O)c3ccccc3CC(=O)NO)cc2)cc1 measure=pIC50 val=7.60
compound="COc1ccc(-c2ccc(S(=O)(=O)c3ccccc3C(C)C(=O)O)cc2)cc1 (racemic)" measure=pIC50 val=6.72
compound=COc1ccc(S(=O)(=O)c2ccccc2CC(=O)NO)cc1 measure=pIC50 val=7.08
compound=O=C(NO)c1ccccc1S(=O)(=O)c1ccc(Oc2ccccc2)cc1 measure=pIC50 val=5.57
compound=COc1ccc(-c2ccc(S(=O)(=O)c3ccccc3CC(=O)O)cc2)cc1 measure=pIC50 val=7.11
compound=COc1ccc(S(=O)(=O)c2ccccc2C(=O)NO)cc1 measure=pIC50 val=4.55
compound=O=C(NO)c1ccccc1S(=O)(=O)c1ccc(-c2ccccc2)cc1 measure=pIC50 val=5.85
compound=CC(C)ON([C@@H](C(=O)O)C(C)C)S(=O)(=O)c1ccc(-c2ccccc2)cc1 measure=pIC50 val=5.10

Items follow; give pIC50 for each.
1. C[S+]([O-])c1ccc(Oc2ccc(S(=O)(=O)c3ccccc3C(=O)NO)cc2)cc1 (stereo not given)
2. COc1ccc(Oc2ccc(S(=O)(=O)c3ccccc3C(=O)NO)cc2)cc1
3. O=C(Cc1ccccc1S(=O)(=O)c1ccc(-c2ccccc2)cc1)NO
4. COc1ccc(Oc2ccc(S(=O)(=O)c3ccccc3CC(=O)O)cc2)cc1
5. O=C(O)Cc1ccccc1S(=O)(=O)c1ccc(-c2ccccc2)cc1
6. CC(C)ON([C@@H](C(=O)NO)C(C)C)S(=O)(=O)c1ccc(-c2ccccc2)cc1

1. 4.70
2. 5.57
3. 7.21
4. 6.03
5. 6.59
6. 8.39

Where these numbers come from: ChEMBL document CHEMBL1154164
